# inhibition annotations
targetDesc: Ribosomal protein S6 kinase alpha-4 (Homo sapiens) (UniProt O75676);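 also: mean inhibition of MSK2, GSK PKIS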
Sequence (O75676 whole entry, looked up): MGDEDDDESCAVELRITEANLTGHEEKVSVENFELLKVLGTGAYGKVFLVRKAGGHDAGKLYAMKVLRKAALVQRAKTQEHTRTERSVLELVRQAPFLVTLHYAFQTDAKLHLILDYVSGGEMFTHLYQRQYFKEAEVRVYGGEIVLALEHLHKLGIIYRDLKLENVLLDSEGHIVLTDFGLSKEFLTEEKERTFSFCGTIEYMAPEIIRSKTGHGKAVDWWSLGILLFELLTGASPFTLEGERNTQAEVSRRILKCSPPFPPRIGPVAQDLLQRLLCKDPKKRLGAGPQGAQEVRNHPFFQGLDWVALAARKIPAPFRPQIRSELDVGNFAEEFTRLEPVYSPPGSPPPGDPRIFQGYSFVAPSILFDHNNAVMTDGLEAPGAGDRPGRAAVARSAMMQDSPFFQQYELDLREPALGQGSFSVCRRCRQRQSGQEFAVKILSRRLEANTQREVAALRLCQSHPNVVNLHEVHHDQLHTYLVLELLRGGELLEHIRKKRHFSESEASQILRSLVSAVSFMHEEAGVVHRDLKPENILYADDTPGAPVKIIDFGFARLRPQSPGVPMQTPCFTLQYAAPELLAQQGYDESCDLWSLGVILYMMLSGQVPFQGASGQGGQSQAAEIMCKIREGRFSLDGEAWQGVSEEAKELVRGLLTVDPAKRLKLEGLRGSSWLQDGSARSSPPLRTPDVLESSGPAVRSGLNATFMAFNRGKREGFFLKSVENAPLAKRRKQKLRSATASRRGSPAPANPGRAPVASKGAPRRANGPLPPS
conditions: at 1 µM

[
  {
    "molecule": "NS(=O)(=O)c1cccc(Nc2cc(-c3ccc(F)cc3)n[nH]2)c1",
    "inhibition, %": 5.59
  },
  {
    "molecule": "c1ccc(Nc2ncc(-c3ccccc3)o2)cc1",
    "inhibition, %": 3.34
  },
  {
    "molecule": "NS(=O)(=O)c1ccc(NC=C2C(=O)Nc3ccc4ncsc4c32)cc1",
    "inhibition, %": 63.9
  },
  {
    "molecule": "Cc1ccc(Nc2ccnc(Nc3cccc(C(N)=O)c3)n2)cc1O",
    "inhibition, %": 4.49
  },
  {
    "molecule": "Nc1ccc(C#Cc2cncnc2Nc2ccc(OCc3cccc(F)c3)c(Cl)c2)cc1",
    "inhibition, %": 3.14
  },
  {
    "molecule": "CCn1c(-c2nonc2N)nc2c(C#CC(C)(C)O)nc(OCCNC)cc21",
    "inhibition, %": 9.93
  }
]

---

targetDesc: Mitogen-activated protein kinase 3 (Homo sapiens) (UniProt P27361);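 also: each value is a mean inhibition figure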
Sequence (P27361 whole entry): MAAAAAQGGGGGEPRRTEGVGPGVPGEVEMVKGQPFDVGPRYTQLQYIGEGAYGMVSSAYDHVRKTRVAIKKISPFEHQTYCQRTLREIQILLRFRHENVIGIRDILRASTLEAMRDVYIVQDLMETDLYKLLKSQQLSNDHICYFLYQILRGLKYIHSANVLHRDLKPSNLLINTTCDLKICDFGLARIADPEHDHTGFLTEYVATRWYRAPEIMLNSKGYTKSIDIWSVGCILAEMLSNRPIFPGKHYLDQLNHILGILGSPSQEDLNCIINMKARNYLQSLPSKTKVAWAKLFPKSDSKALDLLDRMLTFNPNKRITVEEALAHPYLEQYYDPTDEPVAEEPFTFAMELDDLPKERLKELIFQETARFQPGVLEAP
conditions: at 0.1 µM
# inhibition annotations
measurementKind: inhibition (%)

[
  {
    "molecule": "Cc1nc(-c2ccccc2)n2nc(NCCCN3CCOCC3)ncc12",
    "targetDesc": "Mitogen-activated protein kinase 3 (Homo sapiens) (UniProt P27361)",
    "reported": 4.27
  },
  {
    "molecule": "Cc1cc(-c2ccccn2)cc(C)c1/C=C/c1cncc(-c2nn[nH]n2)c1",
    "targetDesc": "Mitogen-activated protein kinase 3 (Homo sapiens) (UniProt P27361)",
    "reported": 5.71
  },
  {
    "molecule": "Cc1ccc(Nc2ccnc(Nc3cccc(C(N)=O)c3)n2)cc1O",
    "targetDesc": "Mitogen-activated protein kinase 3 (Homo sapiens) (UniProt P27361)",
    "reported": 3.66
  },
  {
    "molecule": "CN(c1ccc(NC(=O)Nc2ccc(OC(F)(F)F)cc2)cc1)c1ccnc(Nc2cccc(S(N)(=O)=O)c2)n1",
    "targetDesc": "Mitogen-activated protein kinase 3 (Homo sapiens) (UniProt P27361)",
    "reported": 2.67
  },
  {
    "molecule": "O=C(Nc1ccc(Oc2ccc3[nH]c(NC(=O)c4ccco4)nc3c2)cc1)Nc1cc(C(F)(F)F)ccc1F",
    "targetDesc": "Mitogen-activated protein kinase 3 (Homo sapiens) (UniProt P27361)",
    "reported": 1.59
  },
  {
    "molecule": "OCc1ccc(-c2nc(-c3ccccn3)c(-c3ccc4c(c3)OCO4)[nH]2)cc1",
    "targetDesc": "Mitogen-activated protein kinase 3 (Homo sapiens) (UniProt P27361)",
    "reported": 3.56
  },
  {
    "molecule": "C[C@@H](Oc1cc(-n2cnc3ccc(OC[C@@H](O)CO)cc32)sc1C(N)=O)c1ccccc1Cl",
    "targetDesc": "Mitogen-activated protein kinase 3 (Homo sapiens) (UniProt P27361)",
    "reported": -0.87
  },
  {
    "molecule": "c1ccc(Cc2nc3ccc(Nc4ncnc5ccccc45)cc3[nH]2)cc1",
    "targetDesc": "Mitogen-activated protein kinase 3 (Homo sapiens) (UniProt P27361)",
    "reported": 2.28
  },
  {
    "molecule": "COc1cccc(-n2ncc3c(N/N=C/c4ccc(S(C)(=O)=O)cc4)ncnc32)c1",
    "targetDesc": "Mitogen-activated protein kinase 3 (Homo sapiens) (UniProt P27361)",
    "reported": 2.27
  },
  {
    "molecule": "COC(=O)c1cncc(/C=C/c2c(C)cc(O)cc2C)c1",
    "targetDesc": "Mitogen-activated protein kinase 3 (Homo sapiens) (UniProt P27361)",
    "reported": 3.96
  }
]
